Tested on: SR leukemia
Assay: NCI-60 one-dose screen, 48 h
Conditions: 10 µM unless noted
Protocol: Growth inhibition of the SR human tumor cell line is measured as a screen for anti-cancer activity. Cells are grown in 96 well plates and exposed to the test compound for 48 hours. Compounds are tested at a single concentration, which is 10^-5 M for most compounds. The reported endpoint is percent growth (GI% or GIPRCNT), where numbers from 0 - 100% represent growth inhibition, and numbers from -100% - 0 represent cell death. For example, a value of 40 represents 60% growth inhibition. […]
Compounds without any hit were thinned out: in the full panel of roughly 83,000, 20% have a hit. The source made the active and inactive calls. How the source made its calls: active means growth percent below 10; inactive means the rest.
// allowed return values: active, inactive

CC(C)n1cnc2c(=S)nc[nH]c21	inactive
Cn1cccc1C(=O)C1C(c2cccc([N+](=O)[O-])c2)C2C3CCCCC3CN2C12C(=O)Nc1ccc(Cl)cc12 (stereo unspecified)	active
CCc1nc2c(=O)[nH]cnc2o1	inactive
C#CCOc1cccc(Nc2ncnc3ccc(NC(=O)CCl)cc23)c1	active
O=C(/C=C/c1cccs1)c1ccc(Cl)nc1	inactive

Dear colleague, could you share the recorded outcome for O=C1Nc2ccccc2/C1=C\c1nc(-c2ccccc2F)n2ccccc12 when you have a moment?
inactive

For COc1ccc2[nH]cc(-c3nc(-c4c[nH]c5ccncc45)cs3)c2c1 , which call appears in the assay record?
active

Answer briefly: the call reported for COc1ccc(C(=O)Nc2ncc(Cc3ccc(F)cc3)s2)cc1 in this assay.
inactive

I would be grateful if you could indicate the recorded call for CCSc1nc(NC)c2cc(-c3ccc(C(F)(F)F)cc3)ccc2n1 .
inactive

What did this assay record as the result for O=C(c1ccc(-c2nc(CSc3nc4ccccc4s3)no2)cc1)N1CCSCC1 ?
inactive

Hello, I am checking results. What call was entered for CN1CCN(C(=O)OCc2ccc3c(Cl)cc(Cl)c(O)c3n2)CC1 ?
inactive

----------
tested on: HT29 colon; experiment: NCI-60 one-dose screen, 48 h (100 = growth as untreated, 0 = no growth, -100 = all killed); conditions: 10 µM unless noted
Compounds without any hit were thinned out: in the full panel of roughly 83,000, 20% have a hit. Active and inactive are the calls of the source. Rule for the calls: active = growth percent below 10; inactive = the rest.
measurement.kind: growth

O=C(CSc1nc2ccc([N+](=O)[O-])cc2[nH]1)Nc1ccc(F)cc1	71.6% (inactive)
CC1=C(C(=O)OC(C)C)C(c2ccc3c(c2)OCO3)NC(=S)N1 (configuration not stated)	103% (inactive)
COc1cc(-c2nc3cc(Cl)c(Cl)cc3[nH]2)ccc1OCC(=O)N=Nc1c(O)[nH]c2ccc([N+](=O)[O-])cc12	110% (inactive)
O=C1CNC(c2ccccc2)C(c2ccccc2)N1 (configuration not stated)	85.2% (inactive)
CN(C)Cc1ccc(NC(=O)c2cncc(C#Cc3cnc(N)c4ncccc34)c2)cc1F	3.71% (active)
Brc1ccc2[nH]cc(-c3nonc3-c3c[nH]c4ccccc34)c2c1	11.2% (inactive)

Given the entry C[C@@H]1CCC[C@H]1CC(N)C(=O)O (some centres not stated) , report its measured growth.
116% (inactive)

Consider the compound CCCC(O)Cn1ncc(C(=O)OCC)c1NC(=O)NCc1ccccc1F (configuration not stated) and give its measured growth.
81.1% (inactive)

# get_value(readout='growth', item= O=C(Nn1c2c(sc1=NCc1ccccc1)C(=O)c1ccccc1C2=O)c1cc2ccc1CCc1ccc(cc1)CC2 )
99.6% (inactive)

What growth value was documented for this compound, COC(=O)CNC(=O)[C@H](Cc1ccccc1)NCc1ccncc1 ?
86.6% (inactive)

May I ask what growth has been recorded for CC(C)(C)n1cc(-c2ccnc(NCCNS(=O)(=O)c3cccc4ccccc34)c2)c(-c2cccc(F)c2)n1 ?
-29.6% (active)

Find the recorded growth belonging to COc1ccc(-c2cn(-c3cc(OC)c(OC)c(OC)c3)c(=O)n2C(C)=O)cc1 and report it.
85.4% (inactive)

Endpoint output: growth of CCCCOC(=O)OCc1cc(=O)c(O)co1 . Value?
101% (inactive)

Look up growth for this compound: CN(C)C1CCN(Cc2ccc(NC(=O)c3cncc(C#Cc4cnc(N)c5ncccc45)c3)cc2C(F)(F)F)CC1
19.3% (inactive)

Which growth is reported for this compound? CCN(CC)c1ccc(/C=C/C(=O)c2ccc(Nc3nc(Nc4ccccc4)nc(Nc4ccccc4)n3)cc2)cc1
49.8% (inactive)

I have this compound here, C[C@]12CC[C@@H]3c4ccc(O)c([N+](=O)[O-])c4CC[C@H]3[C@@H]1CCC2=O , and I need its recorded growth.
95.5% (inactive)

Given CNC(=O)c1cc(Oc2ccc3c(c2)sc2nc(-c4cc(OC)c(OC)c(OC)c4)cn23)ccn1 , state its recorded growth.
65.3% (inactive)

Give its growth value. Item: Clc1ccc(Nc2nnc(COc3ccccc3)c3ccccc23)cc1
1.32% (active)

# lookup: growth of COc1cc(-c2nc(SCCC(C)C)nc(Nc3ccccc3Cl)c2C#N)cc(OC)c1OC
89.1% (inactive)

# get_value(readout='growth', item= C=C1C(=O)O[C@H]2[C@H]1CC/C(COC(=O)NCc1ccc(Cn3c(=O)sn(CCI)c3=O)cc1)=C\CC[C@@]1(C)O[C@@H]21 )
39.8% (inactive)

growth for CC1=NN(c2nc(SCC(=O)Nc3nc4ccc(C)cc4s3)nc(-c3ccccc3)c2C#N)C(=O)C1 ?
104% (inactive)

Which growth value belongs to O=c1oc2c(cnc3ccccc32)cc1-c1ccsc1 ?
113% (inactive)

Given the entry CCCNC(=O)Oc1ccc(/C(=C(/C)Cc2ccc(OC)cc2)c2ccc(OCCCN(C)C)cc2)cc1 , report its measured growth.
25.7% (inactive)

Give its growth value. Item: O=C(CN1C(=O)CCC1=O)Nc1ncc(Cc2ccc(F)cc2)s1
106% (inactive)
